test: in vitro; conditions: dog
Listing of entries alongside the reported CC50 at 72 h.

Compound | CC50 at 72 h (µM)
CC(=O)O[C@@H]1[C@@H](OC(C)=O)[C@H](OCc2cn(Cc3nc4ccccc4s3)nn2)OC[C@H]1OC(C)=O | 302
CC(=O)O[C@@H]1[C@@H](OC(C)=O)[C@H](OCc2cn(Cc3nc4ccccc4o3)nn2)OC[C@H]1OC(C)=O | 478
CC(=O)OC[C@H]1O[C@@H](OCc2cn(Cc3nc4ccccc4[nH]3)nn2)[C@H](OC(C)=O)[C@@H](OC(C)=O)[C@H]1OC(C)=O | 503
CC(=O)OC[C@H]1O[C@@H](OCc2cn(Cc3nc4ccccc4s3)nn2)[C@H](OC(C)=O)[C@@H](OC(C)=O)[C@@H]1OC(C)=O | 764
CC(=O)OC[C@H]1O[C@@H](OCc2cn(Cc3nc4ccccc4o3)nn2)[C@H](OC(C)=O)[C@@H](OC(C)=O)[C@@H]1OC(C)=O | 1050
CC(=O)OC[C@H]1O[C@@H](OCc2cn(Cc3nc4ccccc4o3)nn2)[C@H](OC(C)=O)[C@@H](OC(C)=O)[C@H]1OC(C)=O | 788
CC(=O)N[C@H]1[C@H]([C@H](O)[C@H](O)CO)OC(C(=O)O)=C[C@@H]1N=C(N)N [zanamivir, reference compound] | 589
CCOC(=O)C1=C[C@H](N)C(NC(C)=O)[C@H](OC(CC)CC)C1 (some centres unmarked) [oseltamivir, reference compound] | 581
CC(=O)O[C@@H]1[C@@H](OC(C)=O)[C@H](OCc2cn(Cc3nc4ccccc4[nH]3)nn2)OC[C@H]1OC(C)=O | 795
CC(=O)OC[C@H]1O[C@@H](OCc2cn(Cc3nc4ccccc4[nH]3)nn2)[C@H](OC(C)=O)[C@@H](OC(C)=O)[C@@H]1OC(C)=O | 685
CC(=O)OC[C@H]1O[C@@H](OCc2cn(Cc3nc4ccccc4s3)nn2)[C@H](OC(C)=O)[C@@H](OC(C)=O)[C@H]1OC(C)=O | 312

Numbers sourced from paper PMC8950700.
